Hi there, I'd appreciate the recorded % cells in cell cycle phase G2/M for every entry that follows.
# Tested on: B16-F10 cells
# Experimental protocol: Cell cycle assay in B16-F10 cells
# Format: cell-based, mouse
# Particulars: 150 nM, 48 hours, relative to untreated control
# Protocol: BJ cells were routinely cultured in MEM high glucose with 2 mM L-glutamine and Earle's BSS adjusted to contain 1.5 g/L sodium bicarbonate and supplemented with 10% fetal bovine serum, 0.1 mM non-essential amino acids and 1.0 mM sodium pyruvate (all media and supplements from Invitrogen Life Technologies, Carlsbad, Calif.). […]
In the oligonucleotide strings, read from the 5' end, every base follows the letter of its sugar. An asterisk marks phosphorothioate; unmarked linkages are phosphodiester. Other units and linkages are bracketed, terminal groups are in braces. A string of capitals states the bases alone. e = 2'-O-(2-methoxyethyl) (MOE); [5mC] = 5-methylcytosine; d = 2'-deoxy (DNA)
One number for each entry, in %.

As a guide, the following entries are already answered.
345395 (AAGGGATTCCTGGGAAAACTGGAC; sugars from the 5' end e5 d10 e9, all phosphorothioate, methylation of C not given here) [compound 345395]
115
328744 (antisense e[5mC]*eG*eG*eA*eT*d[5mC]*d[5mC]*dT*dG*dT*dT*dA*d[5mC]*d[5mC]*dT*e[5mC]*eA*e[5mC]*e[5mC]*eA) [compound 328744]
110

Please look at the following substance next.
**Q:** Fill in the blank: the reported % cells in cell cycle phase G2/M of 285717 (antisense TCGGTTCTTTCCAAGGCTGA; chemistry not given here) [compound 285717] is ____.
**A:** 220

* * *

# System: HeLa cells
# Experimental protocol: Cell cycle assay in HeLa cells
# Format: cell-based, human
# Particulars: HeLa cells, 50 nM, 48 hours; percentage of cells in phase, average of replicates
In the oligonucleotide strings, read from the 5' end, every base follows the letter of its sugar. An asterisk marks phosphorothioate; unmarked linkages are phosphodiester. Other units and linkages are bracketed, terminal groups are in braces. A string of capitals states the bases alone. e = 2'-O-(2-methoxyethyl) (MOE); [5mC] = 5-methylcytosine; d = 2'-deoxy (DNA)
Provide the reported % cells in cell cycle phase: aneuploid of each item.
One number for each entry, in %.

Below: 3 substances and their reported % cells in cell cycle phase: aneuploid.
327905 (antisense e[5mC]*eA*eG*eA*e[5mC]*eT*e[5mC]*e[5mC]*eG*eG*eT*eG*eG*eA*eA*eT*eG*eA*eA*eG*eG*eA) [compound 327905]
12
328383 (eA*eG*eA*eG*eG*dG*dG*dA*dG*dA*d[5mC]*dG*dA*dG*dA*eG*e[5mC]*eA*e[5mC]*eT) [compound 328383]
13
328403 (antisense eA*eG*eG*e[5mC]*e[5mC]*dT*dA*dT*dT*d[5mC]*d[5mC]*dT*dG*dT*dA*eG*e[5mC]*eA*eA*eA) [compound 328403]
14

Next up:
**Q:** Fill blank: measured % cells in cell cycle phase: aneuploid of the substance 327902 (antisense eG*eG*e[5mC]*eT*eG*eT*e[5mC]*eA*eA*eT*eT*e[5mC]*eA*eT*eA*eG*eG*eT*e[5mC]*eA*eG) [compound 327902] is ____.
**A:** 14

* * *

# Tested on: adipocytes
# Experimental protocol: Triglyceride accumulation assay in adipocytes
# Type: cell-based, human
# Particulars: differentiating adipocytes transfected with oligomeric compound; Table 75
In the oligonucleotide strings, read from the 5' end, every base follows the letter of its sugar. An asterisk marks phosphorothioate; unmarked linkages are phosphodiester. Other units and linkages are bracketed, terminal groups are in braces. A string of capitals states the bases alone. e = 2'-O-(2-methoxyethyl) (MOE); [5mC] = 5-methylcytosine
Assay metric: TG (triglyceride accumulation)

Some entries whose results are on file:
344617 (GACGGGUGCGAUUUCUGUGUGAGA; all 2'-MOE, all phosphorothioate, methylation of C and T or U not given here) [compound 344617]
52 percentage of untreated control (UTC)
328133 (eT*eG*eA*eA*eG*eG*eT*eT*e[5mC]*eG*eG*eA*eG*eA*eT*eA*eG*eG*e[5mC]*eT*eA; anti-miR) [compound 328133]
43 percentage of untreated control (UTC)

For each of the items listed, what is its TG (triglyceride accumulation)?
1. 328123 (antisense eT*eT*eA*e[5mC]*eA*eG*eG*eT*eG*e[5mC]*eT*eG*e[5mC]*eA*eA*e[5mC]*eT*eG*eG*eA*eA) [compound 328123]
2. 327970 (antisense eA*e[5mC]*eA*eA*eA*eG*eT*eT*e[5mC]*eT*eG*eT*eA*eG*eT*eG*e[5mC]*eA*e[5mC]*eT*eG*eA) [compound 327970]

**A:**
1: 54 percentage of untreated control (UTC); 2: 48 percentage of untreated control (UTC)
